Assay: Antiproliferative activity against human BJ-5ta cells after 72 hrs by MTT assay
Type: cell-based
Details: hTERT-BJ
measure: IC50 (µM)
Just the number in µM, nothing appended.

Provide only the value of recorded IC50 for CCOC(=O)N1CCN(/[N+]([O-])=N/Oc2ccc([N+](=O)[O-])cc2[N+](=O)[O-])CC1
10

* * *

Molecular target: UniProt P08263
Sequence (whole entry): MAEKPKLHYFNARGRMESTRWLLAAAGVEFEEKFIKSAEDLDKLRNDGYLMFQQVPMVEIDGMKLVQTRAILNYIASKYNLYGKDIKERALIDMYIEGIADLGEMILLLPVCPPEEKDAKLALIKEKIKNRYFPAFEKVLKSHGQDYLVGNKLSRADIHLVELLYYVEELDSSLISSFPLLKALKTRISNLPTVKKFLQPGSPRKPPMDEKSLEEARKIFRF
Assay: Specific activity of human recombinant Glutathione S-transferase A1 at 50 uM by spectrophotometric analysis in presence of glutathione
measure: Activity (µmol/min/mg)
Quick reminder: number only, in µmol/min/mg, skip the unit.

CCOC(=O)N1CCN(/[N+]([O-])=N/Oc2ccc([N+](=O)[O-])cc2[N+](=O)[O-])CC1C (stereo not drawn)
55.5
CCOC(=O)N1CC(C)N(/[N+]([O-])=N/Oc2ccc([N+](=O)[O-])cc2[N+](=O)[O-])CC1C (stereo not drawn)
17.6
CCOC(=O)N1CCN(/[N+]([O-])=N/Oc2ccc([N+](=O)[O-])cc2[N+](=O)[O-])CC1
66.3
CCOC(=O)N1CCCN(/[N+]([O-])=N/Oc2ccc([N+](=O)[O-])cc2[N+](=O)[O-])CC1
16.8
CCOC(=O)N1CCN(/[N+]([O-])=N/Oc2ccc([N+](=O)[O-])cc2[N+](=O)[O-])C(C)C1 (stereo not drawn)
47
CCCOC(=O)N1CCN(/[N+]([O-])=N/Oc2ccc([N+](=O)[O-])cc2[N+](=O)[O-])CC1
59
CCOC(=O)N1C(C)CN(/[N+]([O-])=N/Oc2ccc([N+](=O)[O-])cc2[N+](=O)[O-])CC1C (stereo not drawn)
70.3

Please find the next compound below.
Send back UniProt P08263 Activity of COC(=O)N1CCN(/[N+]([O-])=N/Oc2ccc([N+](=O)[O-])cc2[N+](=O)[O-])CC1 only.
45.1

Reference source for all entries: ChEMBL document CHEMBL1142542
